- Tested on: Candida albicans
- Test protocol: Antibiofilm activity against Candida albicans ATCC 10231 after 24 hrs by XTT reduction assay
- Assay type: functional
Endpoint label: MBIC50

O=C(/C=C/c1ccccc1)OC(Cn1ccnc1)c1ccc(Cl)cc1Cl (configuration not stated) yielded MBIC50 of 2 to 64 µg/mL

O=C(/C=C/c1ccccc1)N1CCN(c2ncccc2[N+](=O)[O-])CC1 yielded MBIC50 of >128 µg/mL

O=C(/C=C/c1ccccc1)OC(Cn1cncn1)(Cn1cncn1)c1ccc(F)cc1F yielded MBIC50 of 4 to 128 µg/mL

OC(Cn1cncn1)(Cn1cncn1)c1ccc(F)cc1F [FLUCONAZOLE] yielded MBIC50 of 128 µg/mL

O=C(/C=C/c1ccccc1)N1CCN(c2ccc([N+](=O)[O-])cc2)CC1 yielded MBIC50 of >128 µg/mL

O=C(O)/C=C/c1ccccc1 [CINNAMIC ACID] yielded MBIC50 of >128 µg/mL

O=C(/C=C/c1ccccc1)NCCc1c[nH]c2ccccc12 yielded MBIC50 of 8 to 128 µg/mL

O=C(/C=C/c1ccccc1)OCc1ccc([N+](=O)[O-])o1 yielded MBIC50 of 16 to 64 µg/mL

O=C(/C=C/c1ccccc1)NCCCn1ccnc1 yielded MBIC50 of >128 µg/mL
